Molecular target: wild-type human cardiac sodium channel, hNav1.5 (late INa) (Homo sapiens, UniProt Q14524)
Sequence (Q14524 whole entry): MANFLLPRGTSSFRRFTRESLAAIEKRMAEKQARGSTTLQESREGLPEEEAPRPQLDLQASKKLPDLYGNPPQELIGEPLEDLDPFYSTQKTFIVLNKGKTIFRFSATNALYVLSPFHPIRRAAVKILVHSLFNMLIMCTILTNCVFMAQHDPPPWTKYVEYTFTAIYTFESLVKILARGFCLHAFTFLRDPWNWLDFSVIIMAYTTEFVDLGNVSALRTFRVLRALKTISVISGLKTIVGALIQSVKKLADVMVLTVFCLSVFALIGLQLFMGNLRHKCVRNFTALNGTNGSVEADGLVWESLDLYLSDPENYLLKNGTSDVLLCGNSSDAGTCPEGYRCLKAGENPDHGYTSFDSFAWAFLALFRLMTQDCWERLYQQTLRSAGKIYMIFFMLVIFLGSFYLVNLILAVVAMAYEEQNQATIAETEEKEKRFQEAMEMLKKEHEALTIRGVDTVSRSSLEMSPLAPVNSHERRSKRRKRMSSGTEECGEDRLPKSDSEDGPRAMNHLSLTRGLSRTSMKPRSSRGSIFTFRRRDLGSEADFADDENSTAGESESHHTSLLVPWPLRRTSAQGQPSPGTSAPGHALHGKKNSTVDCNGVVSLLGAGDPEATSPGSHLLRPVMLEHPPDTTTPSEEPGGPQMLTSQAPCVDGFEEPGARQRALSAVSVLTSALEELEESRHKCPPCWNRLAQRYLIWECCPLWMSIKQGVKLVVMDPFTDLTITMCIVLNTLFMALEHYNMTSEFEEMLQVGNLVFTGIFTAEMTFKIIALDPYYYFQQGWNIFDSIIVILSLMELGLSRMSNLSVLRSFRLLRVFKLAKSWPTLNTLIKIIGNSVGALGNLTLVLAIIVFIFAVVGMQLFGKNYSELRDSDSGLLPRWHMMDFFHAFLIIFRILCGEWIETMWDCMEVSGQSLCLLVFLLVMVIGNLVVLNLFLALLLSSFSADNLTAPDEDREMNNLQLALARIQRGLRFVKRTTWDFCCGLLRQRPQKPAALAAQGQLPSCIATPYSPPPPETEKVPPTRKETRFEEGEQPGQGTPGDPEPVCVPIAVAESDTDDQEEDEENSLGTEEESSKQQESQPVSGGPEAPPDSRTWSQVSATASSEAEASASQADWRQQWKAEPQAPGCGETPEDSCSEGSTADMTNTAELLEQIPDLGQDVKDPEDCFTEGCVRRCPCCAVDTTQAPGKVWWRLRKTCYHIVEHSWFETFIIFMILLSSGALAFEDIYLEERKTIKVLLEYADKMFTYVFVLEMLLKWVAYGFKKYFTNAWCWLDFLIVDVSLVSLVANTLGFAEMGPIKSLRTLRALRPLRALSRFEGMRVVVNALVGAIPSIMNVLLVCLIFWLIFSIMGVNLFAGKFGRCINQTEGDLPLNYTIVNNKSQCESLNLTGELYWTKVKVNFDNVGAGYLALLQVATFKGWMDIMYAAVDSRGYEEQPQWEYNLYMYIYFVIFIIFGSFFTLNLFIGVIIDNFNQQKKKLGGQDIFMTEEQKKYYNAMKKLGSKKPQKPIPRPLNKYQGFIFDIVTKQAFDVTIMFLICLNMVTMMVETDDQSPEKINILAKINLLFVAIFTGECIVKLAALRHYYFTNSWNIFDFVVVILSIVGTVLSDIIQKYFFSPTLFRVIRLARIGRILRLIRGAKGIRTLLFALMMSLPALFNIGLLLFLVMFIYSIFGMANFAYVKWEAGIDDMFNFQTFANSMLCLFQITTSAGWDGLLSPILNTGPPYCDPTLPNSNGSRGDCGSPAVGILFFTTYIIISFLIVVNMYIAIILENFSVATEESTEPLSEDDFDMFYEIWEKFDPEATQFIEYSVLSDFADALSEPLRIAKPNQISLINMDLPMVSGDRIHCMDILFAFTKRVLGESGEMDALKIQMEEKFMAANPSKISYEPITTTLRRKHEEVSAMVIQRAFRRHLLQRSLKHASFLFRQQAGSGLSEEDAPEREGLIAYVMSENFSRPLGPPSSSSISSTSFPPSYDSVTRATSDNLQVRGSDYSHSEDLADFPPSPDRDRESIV
Test: Late INa screening assay (QPatch whole cell patch clamp)
Assay type: cell-based
Details: percent block of late INa, compound at 1 μM, 10 μM Tefluthrin, HEK293 hNav1.5; read-out: Late INa 1 μM
Description: The late sodium current (Late INa) and peak sodium current (Peak INa) assays are performed on an automated electrophysiology platform, QPatch 16× (Sophion Bioscience, Copenhagen, Denmark), which uses the whole cell patch clamp technique to measure currents through the cell membrane of up to 16 cells at a time. […] Currents through open sodium channels are automatically recorded and stored in the Sophion Bioscience Oracle database (Sophion Bioscience, Copehagen, Denmark). […]
reportedEndpoint: inhibition at 1 µM (%)

                                    compound                             targetofassay  outputunit  number
 0  C[C@@H]1CC[C@@H](C)N1C(=O)N1CCc2ccc(-c3ccc(C(F)(F)F)cc3)cc2C1 [IX-105]  wild-type human cardiac sodium channel, hNav1.5 (late INa) (Homo sapiens, UniProt Q14524)           %      43
 1  O=C(c1ncccn1)N1CCc2ccc(-c3ccc(Cl)c(F)c3)cc2C1 [IX-24]  wild-type human cardiac sodium channel, hNav1.5 (late INa) (Homo sapiens, UniProt Q14524)           %      19
 2  COc1ccnc(Cn2ncc3ccc(-c4ccc(OC(F)(F)F)cc4)cc3c2=O)n1 [III-30]  wild-type human cardiac sodium channel, hNav1.5 (late INa) (Homo sapiens, UniProt Q14524)           %      56
 3  Cc1ccn(CCn2ncc3ccc(-c4ccc(OC(F)(F)F)cc4)cc3c2=O)n1 [III-17]  wild-type human cardiac sodium channel, hNav1.5 (late INa) (Homo sapiens, UniProt Q14524)           %      49
 4  O=C1c2cc(-c3ccc(C(F)(F)F)cc3F)ccc2OCN1Cc1ccccc1 [VIII-22]  wild-type human cardiac sodium channel, hNav1.5 (late INa) (Homo sapiens, UniProt Q14524)           %      45
 5  O=C(Cn1nnc2ccc(-c3ccc(Oc4ccc(Cl)cc4)cc3)cc2c1=O)N1CCN(c2ncccn2)CC1 [II-65]  wild-type human cardiac sodium channel, hNav1.5 (late INa) (Homo sapiens, UniProt Q14524)           %      19
 6  CCc1nccn1CC1(Cn2nnc3ccc(-c4ccc(OC(F)(F)F)cc4)cc3c2=O)CC1 [II-57]  wild-type human cardiac sodium channel, hNav1.5 (late INa) (Homo sapiens, UniProt Q14524)           %      38
 7  Cc1noc(Cn2ncc3ccc(-c4ccc(OC(F)(F)F)cc4)cc3c2=O)n1 [III-2]  wild-type human cardiac sodium channel, hNav1.5 (late INa) (Homo sapiens, UniProt Q14524)           %      40
 8  CC(c1nc(-c2ncccn2)no1)n1nnc2ccc(-c3ccc(OC(F)(F)F)cc3)cc2c1=O (stereo not drawn) [II-53]  wild-type human cardiac sodium channel, hNav1.5 (late INa) (Homo sapiens, UniProt Q14524)           %      29
 9  O=c1c2cc(-c3ccc(OC(F)(F)F)cc3)ccc2nnn1Cc1cc(-c2ccccc2)no1 [II-10]  wild-type human cardiac sodium channel, hNav1.5 (late INa) (Homo sapiens, UniProt Q14524)           %      21
10  O=c1c2cc(-c3ccc(OC(F)(F)F)cc3)ccc2nnn1CC1(CN2CCOCC2)CC1 [II-40]  wild-type human cardiac sodium channel, hNav1.5 (late INa) (Homo sapiens, UniProt Q14524)           %      48
11  O=c1c2cc(-c3ccc(OC(F)(F)F)cc3)ccc2nnn1CCc1ccccn1 [II-15]  wild-type human cardiac sodium channel, hNav1.5 (late INa) (Homo sapiens, UniProt Q14524)           %      71
